Hey, just so you know, these numbers are from ChEMBL document CHEMBL5058577.

test system: HEK-293T; experiment: Multiplex assay against HEK293T; assay type: toxicity, cell-based; settings: human, 12 h, 1 µM, compound concentration 1 uM, replicate 2
Please respond with reported Population Normal (%) for every item in the list.
One number for each entry, in %.

Cc1onc(-c2ccccc2Cl)c1C(=O)N(C)c1ccc(Cl)cc1; 93
CCc1cc2cc(NS(=O)(=O)c3ccc(C#N)cc3)ccc2n(CC)c1=O; 92
Cc1cnc(-c2cc(N3CCN(C(=O)CCS(C)(=O)=O)CC3)ncc2Cl)c(C)c1; 90
CCCOc1ccc2[nH]cc(C3=CCNCC3)c2n1.Cl; 95

Moving on to the next compound.
Challenge: Item `Cc1noc(-c2ccc(-c3ccc(CC(=O)O)cc3)cc2)c1NC(=O)O[C@H](C)c1ccccc1Cl` has what recorded Population Normal (%)?
Response given: 88

----------
test system: Fibroblast; assay: Multiplex assay against human fibroblast; type: toxicity, cell-based; conditions: 48 h, 1 µM, compound concentration 1 uM, replicate 1
What Total Cell Count was measured for each of the following?
Give bare numbers.

COc1ccccc1N1CCN(C[C@@H](C(=O)NC(C)(C)C)c2ccccc2)CC1.Cl.Cl; 138
O=C(CCCc1ccccc1)Nc1nc2ccccc2c(=O)s1; 146
CC(C)(C)c1cc(NC(=O)Nc2ccc(-c3cn4c(n3)sc3cc(OCCN5CCOCC5)ccc34)cc2)no1; 145
Cl.N=C(N)NC(=O)Cc1c(Cl)cccc1Cl [GUANFACINE HYDROCHLORIDE]; 162
Cc1cccc(NC(=O)CN2CCC(c3ccccn3)CC2)c1.Cl.Cl; 138

Batch of 3 compounds: report Total Cell Count for each.
1. Cc1sc2c(c1C)C(c1ccc(Cl)cc1)=N[C@@H](CC(=O)NCCCCCCCCNC(=O)COc1cccc3c1C(=O)N(C1CCC(=O)NC1=O)C3=O)c1nnc(C)n1-2 (stereo partly drawn)
2. CN[C@@H](C)C(=O)N[C@H](C(=O)N1CCC[C@H]1C(=O)Nc1snnc1-c1ccccc1)C1CCCCC1
3. CC(=O)Nc1cccc2c1c(Sc1ccc(Cl)cc1)c(C)n2CC(=O)O

Response given:
1: 102; 2: 132; 3: 171

----------
system: HEK-293T; experiment: Multiplex assay against HEK293T; format: toxicity, cell-based; conditions: human, 48 h, 10 µM, compound concentration 10 uM, replicate 1
Is Population Pyknosed Nuclei (%) at least 9%? Then true (1). If not, false (0).

Recorded results for 3 molecules are shown here.
NCCc1cn(S(=O)(=O)c2c(Cl)nc3sccn23)c2ccccc12.O=C(O)C(=O)O; true (1)
CN1CCN(c2cc(-c3ccccc3)nc(N)n2)CC1; false (0)
CN[C@@H](C)C(=O)N[C@H](C(=O)N1CCC[C@H]1C(=O)Nc1snnc1-c1ccccc1)C1CCCCC1; true (1)

Challenge: Tell me whether Population Pyknosed Nuclei (%) is at least 9% here: `CCCOc1ccc2[nH]cc(C3=CCNCC3)c2n1.Cl`
Response given: false (0)

Challenge: Kindly determine if Population Pyknosed Nuclei (%) recorded for `Cc1cnc(-c2cc(N3CCN(C(=O)CCS(C)(=O)=O)CC3)ncc2Cl)c(C)c1` is above or exactly 9%.
Response given: false (0)

Challenge: Population Pyknosed Nuclei (%) >= 9% for `CN(C)C(=O)Cn1cc(-c2ccc(-c3cncc4ccccc34)cc2)cn1` ?
Response given: true (1)

Challenge: Check this molecule for Population Pyknosed Nuclei (%) at or above 9%: `C[C@H](N)COC(=O)[C@@H](CCCCN)NC(=O)Cc1c(-c2ccc3ccccc3c2)[nH]c2c1ccc1ccccc12`
Response given: false (0)

Challenge: Textbook exercise: given the entry O=C(NCCN1CCC(n2c(=O)[nH]c3cc(Cl)ccc32)CC1)c1ccc(F)cc1 [HALOPEMIDE] , state whether its Population Pyknosed Nuclei (%) is greater than or equal to 9%.
Response given: true (1)
